Known Ki of a selection of compounds
TGT: α3β4 nAChR subtype (Rattus norvegicus, UniProt P04757+P12392)
Construct: expressed in transfected cells
Sequence (P04757 26-499): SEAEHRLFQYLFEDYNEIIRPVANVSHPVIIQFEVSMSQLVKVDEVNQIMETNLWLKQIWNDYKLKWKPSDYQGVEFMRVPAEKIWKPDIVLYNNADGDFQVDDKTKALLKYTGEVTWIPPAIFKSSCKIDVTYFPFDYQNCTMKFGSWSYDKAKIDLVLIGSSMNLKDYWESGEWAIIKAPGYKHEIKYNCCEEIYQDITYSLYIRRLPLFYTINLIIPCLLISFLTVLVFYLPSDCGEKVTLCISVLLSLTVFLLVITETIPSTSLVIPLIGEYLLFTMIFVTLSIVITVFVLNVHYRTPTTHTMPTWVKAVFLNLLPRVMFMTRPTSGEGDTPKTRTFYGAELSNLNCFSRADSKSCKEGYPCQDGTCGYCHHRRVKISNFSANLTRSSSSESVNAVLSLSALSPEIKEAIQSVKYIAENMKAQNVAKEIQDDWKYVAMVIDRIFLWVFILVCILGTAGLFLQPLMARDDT
Sequence (P12392 21-495): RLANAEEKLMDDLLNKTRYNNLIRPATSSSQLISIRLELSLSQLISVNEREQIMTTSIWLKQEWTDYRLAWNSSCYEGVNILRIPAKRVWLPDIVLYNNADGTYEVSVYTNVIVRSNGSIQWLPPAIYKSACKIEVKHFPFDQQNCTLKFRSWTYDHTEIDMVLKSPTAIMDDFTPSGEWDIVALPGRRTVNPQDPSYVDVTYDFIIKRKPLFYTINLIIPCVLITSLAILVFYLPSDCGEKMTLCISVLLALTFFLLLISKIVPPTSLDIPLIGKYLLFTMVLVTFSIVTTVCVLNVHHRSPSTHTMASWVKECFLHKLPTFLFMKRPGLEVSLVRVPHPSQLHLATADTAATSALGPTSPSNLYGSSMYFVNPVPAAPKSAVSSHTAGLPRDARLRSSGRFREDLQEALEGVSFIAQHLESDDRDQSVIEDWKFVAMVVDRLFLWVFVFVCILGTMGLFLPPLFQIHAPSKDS
METHOD_NOTES: biochemical
Format: binding
CONDITION_DESCRIPTION: Table 6; [3H]-EB 0.099 nM, 0.091 nM; ligand 0.00197-100 μM; n = 1; read-out: Ki α3β4
PROPERTY_NAME: Ki (µM)

1. C#Cc1cncc(OC[C@@H]2CCCN2C)c1; 3.08
2. CN1CCC[C@H]1COc1cncc(C#CC(C)(C)O)c1; 32.6
3. CN1CCC[C@H]1COc1cncc(C#CCO)c1; 18.2
4. CN1CCC[C@H]1COc1cncc(C#CCCCCCCCCO)c1; 62.7
5. CN1CCC[C@H]1COc1cncc(C#CCCCCO)c1; 40.2
6. CN1CCC[C@H]1COc1cncc(CCCCCCO)c1; 20

* * *

TGT: α2β2 nAChR subtype (Rattus norvegicus, UniProt P12389+P12390)
Construct: expressed in transfected cells
Sequence (P12390 25-500): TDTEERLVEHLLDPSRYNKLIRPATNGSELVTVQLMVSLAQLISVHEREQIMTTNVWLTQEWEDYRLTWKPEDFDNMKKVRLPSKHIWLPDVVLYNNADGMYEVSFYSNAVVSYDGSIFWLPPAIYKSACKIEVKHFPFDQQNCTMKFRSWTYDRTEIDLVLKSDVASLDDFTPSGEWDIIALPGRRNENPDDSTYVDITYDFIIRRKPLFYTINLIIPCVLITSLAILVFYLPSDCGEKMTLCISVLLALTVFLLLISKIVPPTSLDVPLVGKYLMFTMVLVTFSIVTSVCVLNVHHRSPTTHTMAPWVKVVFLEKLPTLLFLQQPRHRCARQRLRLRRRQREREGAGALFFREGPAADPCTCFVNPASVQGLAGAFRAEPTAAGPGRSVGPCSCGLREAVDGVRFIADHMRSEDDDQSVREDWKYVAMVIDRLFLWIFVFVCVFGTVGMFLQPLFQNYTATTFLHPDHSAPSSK
Sequence (P12389 28-511): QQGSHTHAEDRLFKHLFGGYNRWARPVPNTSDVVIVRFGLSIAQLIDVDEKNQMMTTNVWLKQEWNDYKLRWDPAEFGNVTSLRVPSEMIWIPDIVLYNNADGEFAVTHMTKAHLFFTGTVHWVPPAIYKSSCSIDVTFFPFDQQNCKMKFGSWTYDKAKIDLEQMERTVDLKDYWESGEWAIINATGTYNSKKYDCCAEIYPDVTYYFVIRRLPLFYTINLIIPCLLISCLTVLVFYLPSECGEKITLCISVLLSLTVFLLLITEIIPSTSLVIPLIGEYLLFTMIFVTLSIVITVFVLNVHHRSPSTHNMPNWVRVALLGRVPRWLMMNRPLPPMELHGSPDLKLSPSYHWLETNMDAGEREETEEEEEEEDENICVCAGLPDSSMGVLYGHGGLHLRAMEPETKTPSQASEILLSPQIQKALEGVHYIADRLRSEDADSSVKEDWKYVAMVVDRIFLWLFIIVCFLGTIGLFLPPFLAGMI
METHOD_NOTES: biochemical
Format: binding
CONDITION_DESCRIPTION: read-out: Ki α2β2; Table 5; rat nAChR subtypes
PROPERTY_NAME: Ki (nM)

1) CN1CCC[C@H]1COc1cncc(C#CCNC(=O)OC(C)(C)C)c1 [Ligand 13]; 1.19

* * *

Below, each of the compounds is paired with its reported pKi value.
TGT: α4β2 nAChR subtype (Rattus norvegicus, UniProt P09483+P12390)
Construct: expressed in transfected cells
Sequence (P12390 25-500): as the sequence (P12390 25-500) above
Sequence (P09483 31-630): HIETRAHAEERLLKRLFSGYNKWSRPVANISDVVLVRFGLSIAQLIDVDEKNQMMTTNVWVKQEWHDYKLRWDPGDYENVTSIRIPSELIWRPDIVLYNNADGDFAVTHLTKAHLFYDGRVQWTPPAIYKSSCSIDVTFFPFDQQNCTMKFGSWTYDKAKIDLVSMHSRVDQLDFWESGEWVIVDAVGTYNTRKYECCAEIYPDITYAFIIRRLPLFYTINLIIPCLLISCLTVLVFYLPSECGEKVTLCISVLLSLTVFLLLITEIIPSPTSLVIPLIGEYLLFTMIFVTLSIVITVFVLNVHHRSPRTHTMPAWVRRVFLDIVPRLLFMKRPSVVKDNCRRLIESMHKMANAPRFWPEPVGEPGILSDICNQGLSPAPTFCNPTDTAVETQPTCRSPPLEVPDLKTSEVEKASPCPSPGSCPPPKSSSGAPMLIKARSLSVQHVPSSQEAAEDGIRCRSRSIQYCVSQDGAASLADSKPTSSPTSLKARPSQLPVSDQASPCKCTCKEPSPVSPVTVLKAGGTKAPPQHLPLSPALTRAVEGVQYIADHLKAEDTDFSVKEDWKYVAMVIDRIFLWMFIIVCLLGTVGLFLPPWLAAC
METHOD_NOTES: biochemical
Type: binding
CONDITION_DESCRIPTION: Ki α4β2, Table 1; mean of 3 (1, 2: 3 to 6) independent measurements
pKi: −log10 of the molar value.
PROPERTY_NAME: pKi

1) CN1CCC[C@H]1COc1cncc(C#CCCCCCCCCO)c1; 8.19
2) CN1CCC[C@H]1COc1cncc(CCCCCCO)c1; 9.12
3) CN1CCC[C@H]1COc1cncc(C#CCO)c1; 9.02
4) C#Cc1cncc(OC[C@@H]2CCCN2C)c1; 8.99

* * *

TGT: α3β2 nAChR subtype (Rattus norvegicus, UniProt P04757+P12390)
Construct: expressed in transfected cells
Sequence (P04757 26-499, one chain of several): as the sequence (P04757 26-499) above
METHOD_NOTES: biochemical
Type: binding
CONDITION_DESCRIPTION: Ki α3β2, Table 5; rat nAChR subtypes
pKi: −log10 of the molar value.
PROPERTY_NAME: pKi

1. Clc1ccc2c(n1)CCC21CC2CCC1N2 (centres unmarked) [Ligand 58b]; 5.44
2. OC1C2CCC(N2)C1c1ccc(Cl)nc1 (single isomer, unassigned) [Ligand 3]; 8.14
3. Clc1ccc(C2CC3CCC2N3CCN2C3CCC2CC3)cn1 (centres unmarked); 7.68
4. FC1CC2NC1CC2c1ccc(Cl)nc1 (centres unmarked); 9.19
5. OC1CC2NC1CC2c1ccc(Cl)nc1 (centres unmarked); 6.55
6. CCCCCC#Cc1ccc(C2CC3CCC2N3)cn1 (centres unmarked); 7.70
7. Clc1cc2c(cn1)C1C3CCC(N3)C1CC2 (centres unmarked) [Ligand 37a]; 6.46
8. COC(=O)c1nc(Cl)ccc1C1CC2CCC1N2 (centres unmarked); 5.26
9. Clc1ccc(C2CC3CC4(OCCO4)C2N3)cn1 (centres unmarked); 6.83
10. OCCCCC#Cc1cncc(OC[C@@H]2CCCN2)c1; 8.57
11. c1cncc(OC[C@@H]2CCN2)c1 [Ligand A-85380, reference compound]; 9.68

* * *

Property: pKi; scope: individual compounds
TGT: α4β2 nAChR subtype (Rattus norvegicus, UniProt P09483+P12390)
Construct: expressed in transfected cells
METHOD_NOTES: biochemical
Type: binding
CONDITION_DESCRIPTION: Table 3; mean ± SEM of 3 (nicotine, 1: 3 to 6) independent measurements; read-out: Ki α4β2
pKi: −log10 of the molar value.
PROPERTY_NAME: pKi

1. Clc1cc2c(cn1)C1C3CCC(N3)C1CC2 (stereo not shown) [Ligand 37a]; 7.14
2. Clc1ccc2c(n1)CCC1C3CCC(N3)C21 (stereo not shown) [Ligand 37b]; 6.53
3. Clc1ccc2c(n1)CCC21CC2CCC1N2 (stereo not shown) [Ligand 58b]; 5.16
4. Clc1cc2c(cn1)C1(CC2)CC2CCC1N2 (stereo not shown) [Ligand 58a]; 4.53

* * *

TGT: α2β4 nAChR subtype (Rattus norvegicus, UniProt P12389+P12392)
Construct: expressed in transfected cells
Sequence (P12392 21-495, one chain of several): as the sequence (P12392 21-495) above
METHOD_NOTES: biochemical
Type: binding
CONDITION_DESCRIPTION: Table 3; mean ± SEM of 3 (nicotine, 1: 3 to 6) independent measurements; read-out: Ki α2β4
pKi: −log10 of the molar value.
PROPERTY_NAME: pKi

1. Clc1ccc2c(n1)CCC21CC2CCC1N2 (stereo not shown) [Ligand 58b]; 5.14
2. Clc1cc2c(cn1)C1C3CCC(N3)C1CC2 (stereo not shown) [Ligand 37a]; 6.14
3. Clc1cc2c(cn1)C1(CC2)CC2CCC1N2 (stereo not shown) [Ligand 58a]; 4.97
4. Clc1ccc2c(n1)CCC1C3CCC(N3)C21 (stereo not shown) [Ligand 37b]; 7.49

* * *

TGT: α3β2 nAChR subtype (Rattus norvegicus, UniProt P04757+P12390)
Construct: expressed in transfected cells
METHOD_NOTES: biochemical
Format: binding
CONDITION_DESCRIPTION: Table 5; rat nAChR subtypes; read-out: Ki α3β2
PROPERTY_NAME: log10 Ki (log10 of the value in nM)

1. CN1CCC[C@H]1COc1cncc(CCCCCCO)c1; 1.13
2. CN1CCC[C@H]1COc1cncc(C#CCO)c1; 0.88
3. CN1CCC[C@H]1COc1cncc(C#CC(C)(C)O)c1; 1.29
4. CN1CCC[C@H]1COc1cncc(C#CCCCCCCCCO)c1; 1.72
5. CN1CCC[C@H]1COc1cncc(C#CCCCCO)c1; 1.10
6. Clc1ccc(C2CC3CCC2N3CCCN2C3CCC2C(c2ccc(Cl)nc2)C3)cn1 (centres unmarked) [Ligand 59b, Propane-1,3-N,N′-bisepibatidine]; 0.71
7. CCCCC#Cc1cncc(OC[C@@H]2CCCN2C)c1; 1.31
8. C#Cc1cncc(OC[C@@H]2CCCN2C)c1; 1.03

* * *

TGT: α4β4 nAChR subtype (Rattus norvegicus, UniProt P09483+P12392)
Construct: expressed in transfected cells
Sequence (P12392 21-495, one chain of several): as the sequence (P12392 21-495) above
METHOD_NOTES: biochemical
Format: binding
CONDITION_DESCRIPTION: Table 6; [3H]-EB 0.099 nM, 0.091 nM; ligand 0.00197-100 μM; n = 1; read-out: Ki α4β4
pKi: −log10 of the molar value.
Rule: pKi under 6 gives label 0, otherwise label 1.

1. C#Cc1cncc(OC[C@@H]2CCCN2C)c1 [Ligand 18]; label 1
2. CN1CCC[C@H]1COc1cncc(C#CC(C)(C)O)c1 [Ligand 15]; label 0
3. CN1CCC[C@H]1COc1cncc(C#CCO)c1 [Ligand 14]; label 0
4. CN1CCC[C@H]1COc1cncc(C#CCCCCCCCCO)c1 [Ligand 17]; label 0

* * *

TGT: α4β2 nAChR subtype (Rattus norvegicus, UniProt P09483+P12390)
Construct: expressed in transfected cells
METHOD_NOTES: biochemical
Assay type: binding
CONDITION_DESCRIPTION: Ki α4β2, Table 5; rat nAChR subtypes
pKi: −log10 of the molar value.
Below is a list of entries, each paired with its recorded pKi value.
PROPERTY_NAME: pKi

1. c1cncc(OC[C@@H]2CCN2)c1 [Ligand A-85380, reference compound]; 9.85
2. FC1CC2NC1CC2c1ccc(Cl)nc1 (centres unmarked); 8.76
3. CN1CCC[C@H]1COc1cccnc1 [Ligand 8, reference compound]; 8.85
4. OCCCCC#Cc1cncc(C2CC3CCC2N3)c1 (centres unmarked); 9.78
5. O=C1CC2CC(c3ccc(Cl)nc3)C1N2 (centres unmarked); 5.69
6. FC1CC2CC(c3ccc(Cl)nc3)C1N2 (centres unmarked); 9.48
7. OC1C2CCC(N2)C1c1ccc(Cl)nc1 (single isomer, unassigned) [Ligand 2]; 5.63
8. Clc1cc2c(cn1)C1(CC2)CC2CCC1N2 (centres unmarked) [Ligand 58a]; 4.55

* * *

TGT: α4β4 nAChR subtype (Rattus norvegicus, UniProt P09483+P12392)
Construct: expressed in transfected cells
METHOD_NOTES: biochemical
Format: binding
CONDITION_DESCRIPTION: Ki α4β4, Table 4, bivalent analogues
Parameter: Ki. Scope: all listed entries.
PROPERTY_NAME: Ki (nM)

1. Clc1ccc(C2CC3CCC2N3CCCCCCN2C3CCC2C(c2ccc(Cl)nc2)C3)cn1 (stereo not shown) [Ligand 59c]; 31.9
2. Clc1ccc(C2CC3CCC2N3CCCCCCCCCCN2C3CCC2C(c2ccc(Cl)nc2)C3)cn1 (stereo not shown) [Ligand 59d]; 18.7
3. Clc1ccc(C2CC3CCC2N3CCCN2C3CCC2C(c2ccc(Cl)nc2)C3)cn1 (stereo not shown) [Ligand 59b]; 23.3
4. Clc1ccc(C2CC3CCC2N3CCN2C3CCC2C(c2ccc(Cl)nc2)C3)cn1 (stereo not shown) [Ligand 59a]; 18
